These measurements were taken from the supplement of paper PMC11451515.

System: SEM cells
protocol_summary: cell viability relative to DMSO control; higher = less cytotoxic
cond: HPLM + 10% dialyzed FBS; 48 h; 0.00702 µM
cell viability for assorted compounds
Could you give me the number in %? Just the number is fine.

# compound, cell viability (%)
measured = [
    ("CCOc1cc(N2CCC(O)CC2)ccc1Nc1ncc2c(n1)N(C)c1ccccc1C(=O)N2C", 133),
    ("O=C1c2ccccc2-c2n[nH]c3cccc1c23", 121),
]

Which cell viability value belongs to Cc1nnc(C(C)C)n1[C@@H]1C[C@H]2CC[C@@H](C1)N2CC[C@H](NC(=O)C1CCC(F)(F)CC1)c1ccccc1 ?
95.8

Which cell viability value belongs to CN(C)CCc1c[nH]c2ccc(Cn3cncn3)cc12 ?
97.4

Which cell viability value belongs to Clc1ccc(C(c2ccccc2Cl)C(Cl)Cl)cc1 (stereo not given) ?
120

Which cell viability value belongs to CN(C)c1ccc(-c2nc3c(N4CCN(CC(=O)Nc5nccs5)CC4)c(Cl)cnc3[nH]2)cc1 ?
115

Which cell viability value belongs to CC(O)(C[S+](=O)([O-])c1ccc(F)cc1)C(=O)Nc1ccc(C#N)c(C(F)(F)F)c1 (stereo not given) ?
91

---

Tested on: P12-Ichikawa
protocol_summary: cell viability relative to DMSO control; higher = less cytotoxic
cond: HPLM + 10% dialyzed FBS; 48 h; 0.19 µM
cell viability for assorted compounds
Could you give me the number in %? Just the number is fine.

Previously resolved entries follow.
# compound, test_target, unit_spec, cell viability
measured = [
    ("Clc1ccc(C(c2ccccc2Cl)C(Cl)Cl)cc1 (stereo not given)", "P12-Ichikawa", "%", 119),
    ("COc1c(N2C[C@@H]3CCCN[C@@H]3C2)c(F)cc2c(=O)c(C(=O)O)cn(C3CC3)c12.Cl.O", "P12-Ichikawa", "%", 114),
    ("COc1cc(N2CCC(N3CCN(C)CC3)CC2)ccc1Nc1ncc(Cl)c(Nc2ccccc2[S+](=O)([O-])C(C)C)n1", "P12-Ichikawa", "%", 136),
    ("Cc1cnc(Nc2cccc(CN3CCOCC3)c2)nc1Nc1cccc([S+](=O)([O-])NC(C)(C)C)c1", "P12-Ichikawa", "%", 89.3),
]

What measured cell viability is associated with c1cc2c(cc1[C@H]1OC[C@H]3[C@@H]1CO[C@@H]3c1ccc3c(c1)OCO3)OCO2 on P12-Ichikawa?
129

What measured cell viability is associated with O=C(O)c1cccc(-c2noc(-c3ccccc3F)n2)c1 on P12-Ichikawa?
105

What measured cell viability is associated with CCC(=O)O[C@@]1(CC[C@H]2[C@@H]3CCC/4=C/C(=O)CC[C@]4(C)[C@H]3CC[C@]12C)C(=O)CO on P12-Ichikawa?
116

What measured cell viability is associated with Cc1nc(-c2ccc(-c3ccc(C(=O)N4CCc5cc6c(cc54)C4(CCN(C)CC4)CO6)cc3)c(C)c2)no1 on P12-Ichikawa?
111

What measured cell viability is associated with O=C1c2ccccc2-c2n[nH]c3cccc1c23 on P12-Ichikawa?
108

What measured cell viability is associated with CCc1nc(N)nc(N)c1-c1ccc(Cl)cc1 on P12-Ichikawa?
89.1

What measured cell viability is associated with CC(=O)N(O)CCCCCNC(=O)CCC(=O)N(O)CCCCCNC(=O)CCC(=O)N(O)CCCCCN.C[S+](=O)([O-])O on P12-Ichikawa?
11.2

What measured cell viability is associated with CCOc1ccccc1N/N=C1/C(=O)N(c2nc(-c3ccccc3)cs2)N=C1C on P12-Ichikawa?
108

What measured cell viability is associated with C/C1=C/C(=C(/CNC(=O)C2=CC(=CC3=C2C=N[N]3C4CCCC4)C5=CC=C(CN6CCOCC6)C=C5)C(=O)N1)C on P12-Ichikawa?
120

What measured cell viability is associated with Cc1cccc(-c2[nH]c(C(C)(C)C)nc2-c2ccc3nccnc3c2)n1 on P12-Ichikawa?
120

What measured cell viability is associated with CN1CCN(CC1)C2=CC3=C([NH]C(=N3)C/4=C(\N)C5=C(F)C=CC=C5NC4=O)C=C2 on P12-Ichikawa?
99.7

---

cell viability for assorted compounds
System: NOMO1
protocol_summary: cell viability relative to DMSO control; higher = less cytotoxic
cond: RPMI 5 mM glucose + 10% dialyzed FBS; 48 h; 1.71 µM

Previously resolved entries follow.
# compound, quantity_measured, result
data = [
    ("Clc1ccc(CCC(Cn2ccnc2)Sc2c(Cl)cccc2Cl)cc1 (stereo unspecified)", "cell viability", "96.2%"),
    ("CC1(C)[C@@H](O)CC[C@@]2(C)[C@H]1CC[C@]3(C)[C@@H]2C(=O)\\C=C/4[C@@H]5C[C@](C)(CC[C@]5(C)CC[C@@]34C)C(O)=O", "cell viability", "117%"),
    ("CC(C)[C@H]1C(=O)N[C@H](CO)Cc2c[nH]c3cccc(c23)N1C", "cell viability", "69.5%"),
    ("CC(C)(Sc1cc(C(C)(C)C)c(O)c(C(C)(C)C)c1)Sc1cc(C(C)(C)C)c(O)c(C(C)(C)C)c1", "cell viability", "94.5%"),
    ("O=C(O)c1cccc(-c2noc(-c3ccccc3F)n2)c1", "cell viability", "95.8%"),
    ("COC(=O)[C@H](Cc1ccccc1)NC(=O)[C@@H](N)CC(=O)O", "cell viability", "122%"),
]

Which cell viability value belongs to c1coc(CNc2ncnc3nc[nH]c23)c1 ?
112%

---

cell viability for assorted molecules
Tested on: SEM cells
protocol_summary: cell viability relative to DMSO control; higher = less cytotoxic
cond: RPMI 5 mM glucose + 10% dialyzed FBS; 48 h; 0.00234 µM
Could you give me the number in %? Just the number is fine.

Which cell viability value belongs to CCOc1ccccc1N/N=C1/C(=O)N(c2nc(-c3ccccc3)cs2)N=C1C ?
106

Which cell viability value belongs to COC(=O)[C@H](Cc1ccccc1)NC(=O)[C@@H](N)CC(=O)O ?
106

Which cell viability value belongs to Clc1ccc(CCC(Cn2ccnc2)Sc2c(Cl)cccc2Cl)cc1 (stereo not drawn) ?
88.7

---

Tested on: SEM cells
protocol_summary: cell viability relative to DMSO control; higher = less cytotoxic
cond: RPMI 5 mM glucose + 10% dialyzed FBS; 48 h; 0.00702 µM
quantity_measured: cell viability
Give the figure together with its unit, number first.

Previously resolved entries follow.
# compound, cell viability
rows = [
    ("CC(O)(C[S+](=O)([O-])c1ccc(F)cc1)C(=O)Nc1ccc(C#N)c(C(F)(F)F)c1 (stereo not drawn)", "98.1%"),
    ("c1ccc2c(CN3CCNCC3)cccc2c1", "126%"),
]

Please examine the following record next.
What measured cell viability is associated with OC(=O)CNC(=O)\C1=C(/O)C2=CC=CC=C2N(CC3=CC=CC=C3)C1=O on SEM cells?
111%

---

cell viability for assorted compounds
Tested on: P12-Ichikawa
protocol_summary: cell viability relative to DMSO control; higher = less cytotoxic
cond: RPMI 5 mM glucose + 10% FBS; 48 h; 0.00234 µM
Could you give me the number in %? Just the number is fine.

# structure_smiles_string, cell viability [%]
data = [
    ("CCC[C@H](Nc1nc(-c2ccc(NC(=O)NCC)c(OC)c2)ncc1C)c1cccnc1", 137),
    ("CN(C[C@@H]1COCCO1)[S+]([O-])(=O)NC2=CC3=C(C=C2)\\C=C/C4=C(C=C(C=N4)C5=C[N](C)N=C5)C3=O", 92.7),
    ("COCC(=O)NC/C=C/c1ccc2ncnc(Nc3ccc(Oc4ccc(C)nc4)c(C)c3)c2c1", 112),
    ("Cc1noc(N[S+](=O)([O-])c2ccc(N)cc2)c1C", 102),
]

Please examine the following record next.
Which cell viability value belongs to CCOc1ccccc1N/N=C1/C(=O)N(c2nc(-c3ccccc3)cs2)N=C1C ?
108

---

Test system: SEM cells
protocol_summary: cell viability relative to DMSO control; higher = less cytotoxic
cond: HPLM + 10% dialyzed FBS; 48 h; 0.19 µM
cell viability for assorted molecules
Give the figure together with its unit, number first.

Previously resolved entries follow.
# molecule, test_target, cell viability
measured = [
    ("Cc1cnc(Nc2cccc(CN3CCOCC3)c2)nc1Nc1cccc([S+](=O)([O-])NC(C)(C)C)c1", "SEM cells", "72.1%"),
    ("CC(c1cc2ccccc2s1)N(O)C(N)=O (stereo unspecified)", "SEM cells", "136%"),
    ("CCCC[S+](=N)([O-])CCC(N)C(=O)O (stereo unspecified)", "SEM cells", "108%"),
]

Please examine the following record next.
Which cell viability value belongs to CN(C)CCc1c[nH]c2ccc(Cn3cncn3)cc12 ?
48.5%

---

Tested on: SEM cells
protocol_summary: cell viability relative to DMSO control; higher = less cytotoxic
cond: RPMI 5 mM glucose + 10% FBS; 48 h; 0.000781 µM
cell viability for assorted compounds
Could you give me the number in %? Just the number is fine.

Which cell viability value belongs to COc1cc2c(cc1O)CCC1C2CC[C@@]2(C)C1CC[C@@H]2O (stereo partly specified) ?
120

Which cell viability value belongs to c1ccc2c(CN3CCNCC3)cccc2c1 ?
85.5

Which cell viability value belongs to c1coc(CNc2ncnc3nc[nH]c23)c1 ?
110

Which cell viability value belongs to O=C1\C=C(OC2=C(C=CC=C12)C3=CC=CC4=C3SC5=C4C=CC=C5)\N6CCOCC6 ?
133

Which cell viability value belongs to CC(=O)OCC(=O)[C@@]1(O)CC[C@H]2[C@@H]3CCC/4=C/C(=O)/C=C\[C@]4(C)[C@H]3[C@@H](O)C[C@]12C ?
121

Which cell viability value belongs to CN(C)C(=O)[C@H](O)[C@H](Cc1ccccc1)NC(=O)c1cc2cc(Cl)ccc2[nH]1 ?
95.8

Which cell viability value belongs to Clc1ccc(C(c2ccc(Cl)cc2)[n+]2ccn(CC(OCc3ccc(Cl)cc3Cl)c3ccc(Cl)cc3Cl)c2)cc1 (stereo unspecified) ?
109

Which cell viability value belongs to C/C=C(\C)C(=O)N[C@@H](c1ccccc1)[C@@H](O)C(=O)O[C@H]1C[C@@]2(O)[C@@H](OC(=O)c3ccccc3)[C@@H]3[C@]4(OC(C)=O)CO[C@@H]4C[C@H](O)[C@@]3(C)C(=O)[C@H](OC(C)=O)C(=C1C)C2(C)C ?
45.4

Which cell viability value belongs to CC(C)(C)NCC(O)c1ccc(O)c(CO)c1 (stereo unspecified) ?
118

Which cell viability value belongs to CO[C@H]1C[C@@H]2CC[C@@H](C)[C@@](O)(O2)C(=O)C(=O)N2CCCC[C@H]2C(=O)O[C@H]([C@@H](C)C[C@@H]2CC[C@@H](O)[C@H](OC)C2)CC(=O)[C@H](C)/C=C(\C)[C@@H](O)[C@@H](OC)C(=O)[C@H](C)C[C@H](C)/C=C/C=C/C=C/1C ?
98.6

Which cell viability value belongs to CC1=CC/2=C(C=C1C)N(C[C@@H](O)[C@@H](O)[C@@H](O)CO)C/3=N/C(=O)NC(=O)C3=N2 ?
85.8
